Just for reference, patent US20240309103A1 is where these values come from.

- SYSTEM TESTED: T1, mfNPR1-mFc:hBNP complex (monkey; human, UniProt P16860 103-134)
- T1 construct: also called monkey NPR1 complexed to BNP
- ASSAY PROTOCOL: SPR, mAb captured, 25C
MEASURED QUANTITY: t½ (min)
State the answer as a number, implicitly in min.

stdin: Need t½ of mAb22809 (antibody, human IgG4, V domains shown) VH: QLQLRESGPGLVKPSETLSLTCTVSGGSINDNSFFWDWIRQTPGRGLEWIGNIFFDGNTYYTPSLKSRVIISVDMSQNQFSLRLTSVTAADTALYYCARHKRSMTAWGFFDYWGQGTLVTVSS VL: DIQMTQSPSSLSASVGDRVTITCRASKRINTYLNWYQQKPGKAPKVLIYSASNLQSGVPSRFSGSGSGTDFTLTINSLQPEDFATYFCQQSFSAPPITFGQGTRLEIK , thanks.
stdout: 72.4

stdin: Form field: reported t½ of mAb22035 (antibody, human IgG4, V domains shown) VH: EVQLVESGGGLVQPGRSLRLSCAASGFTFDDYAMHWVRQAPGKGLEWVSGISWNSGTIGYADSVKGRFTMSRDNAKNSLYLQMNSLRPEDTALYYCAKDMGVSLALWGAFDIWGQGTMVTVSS VL: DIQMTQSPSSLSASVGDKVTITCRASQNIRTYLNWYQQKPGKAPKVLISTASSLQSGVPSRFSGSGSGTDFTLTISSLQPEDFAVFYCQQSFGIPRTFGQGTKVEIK
stdout: 188

stdin: Name the recorded t½ for mAb25479 (antibody, human IgG4, V domains shown) VH: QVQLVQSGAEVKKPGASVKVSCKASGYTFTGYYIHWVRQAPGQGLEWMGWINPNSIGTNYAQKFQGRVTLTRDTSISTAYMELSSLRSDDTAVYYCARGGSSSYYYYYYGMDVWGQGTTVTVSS VL: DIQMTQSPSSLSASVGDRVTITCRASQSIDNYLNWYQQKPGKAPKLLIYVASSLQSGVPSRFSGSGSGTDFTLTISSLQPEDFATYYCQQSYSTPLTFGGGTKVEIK .
stdout: 103

stdin: Please look up its t½: mAb25502 (antibody, human IgG4, V domains shown) VH: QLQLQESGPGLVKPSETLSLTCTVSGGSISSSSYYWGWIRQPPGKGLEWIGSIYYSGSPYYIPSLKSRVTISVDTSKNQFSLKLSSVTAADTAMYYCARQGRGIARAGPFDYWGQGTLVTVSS VL: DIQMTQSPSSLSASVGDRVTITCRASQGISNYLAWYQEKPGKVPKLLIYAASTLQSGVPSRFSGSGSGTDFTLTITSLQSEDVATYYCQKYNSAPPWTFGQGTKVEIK
stdout: 41

stdin: Given the entry mAb25497 (antibody, human IgG4, V domains shown) VH: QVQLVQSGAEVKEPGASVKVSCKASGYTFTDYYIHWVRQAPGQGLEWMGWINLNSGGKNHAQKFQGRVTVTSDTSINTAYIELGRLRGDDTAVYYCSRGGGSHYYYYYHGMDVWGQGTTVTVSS VL: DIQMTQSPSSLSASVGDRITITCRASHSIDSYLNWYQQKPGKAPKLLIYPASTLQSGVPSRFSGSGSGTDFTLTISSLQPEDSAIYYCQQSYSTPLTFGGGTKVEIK , report its measured t½.
stdout: 258

stdin: Please give the measured t½ for this binder: mAb25491 (antibody, human IgG4, V domains shown) VH: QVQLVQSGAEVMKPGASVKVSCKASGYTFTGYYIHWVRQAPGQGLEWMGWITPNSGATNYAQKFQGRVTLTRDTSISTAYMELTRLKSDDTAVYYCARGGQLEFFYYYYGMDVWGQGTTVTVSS VL: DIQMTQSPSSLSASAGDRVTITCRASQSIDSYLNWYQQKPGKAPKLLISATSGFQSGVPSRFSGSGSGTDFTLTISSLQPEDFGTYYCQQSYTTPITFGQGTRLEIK
stdout: 312

stdin: Item mAb22805 (antibody, human IgG4, V domains shown) VH: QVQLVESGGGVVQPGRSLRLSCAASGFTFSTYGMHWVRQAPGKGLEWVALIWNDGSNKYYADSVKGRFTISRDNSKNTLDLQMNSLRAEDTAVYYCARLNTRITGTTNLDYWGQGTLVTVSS VL: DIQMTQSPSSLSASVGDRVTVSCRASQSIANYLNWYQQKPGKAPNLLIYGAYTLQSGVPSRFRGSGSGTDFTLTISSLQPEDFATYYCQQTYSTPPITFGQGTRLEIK has what recorded t½?
stdout: 120
